The values you see were collected from ChEMBL document CHEMBL3507680.

# EXPERIMENT_SUMMARY: Human HepG2 cell viability assay in 384 well format
# Type: toxicity, cell-based
# Parameters: dose 125 nL, time 70.5 hour; concentration not given beside the values
# STATED_CONDITIONS: HepG2 cells, read-out: Inhibition
MEASUREMENT_TYPE: cytotoxicity at 70.5 h (%)

{"MOLECULE": "CN1CCCC1CCNC(=O)c1ccccc1-n1cc(CN)cn1 (configuration not stated)", "TEST_RESULT": 1.23}
{"MOLECULE": "COc1ccccc1N1CC(NC(=O)c2cc(C(C)C)nn2C)CC1=O (configuration not stated)", "TEST_RESULT": 12.6}
{"MOLECULE": "O=C(NCC1Cn2nnc(-c3ccccc3)c2CO1)c1ccc[nH]1 (configuration not stated)", "TEST_RESULT": 1.41}
{"MOLECULE": "COc1ncccc1CN1CCc2[nH]nc(C(=O)N(C)C)c2C1", "TEST_RESULT": -11.3}
{"MOLECULE": "CCc1nc(C)c(C(=O)N2CCCN(Cc3cnn(C)c3)CC2)s1", "TEST_RESULT": -9}
{"MOLECULE": "c1cncc(OCc2noc3c2CN(Cc2cccs2)CC3)c1", "TEST_RESULT": -24.1}
{"MOLECULE": "CCN(CC)C(=O)c1cc(C2CCCN2C)ccn1 (configuration not stated)", "TEST_RESULT": 4.19}
{"MOLECULE": "CSCC(=O)N1CCCN(c2ccncc2C)CC1", "TEST_RESULT": -8.19}
{"MOLECULE": "COC(=O)N1CCc2ccccc2C1C(=O)NCc1ccccn1 (configuration not stated)", "TEST_RESULT": 0.0153}
{"MOLECULE": "CC(=O)NCC(=O)NC1CCc2nccn2C1 (configuration not stated)", "TEST_RESULT": 7.09}
{"MOLECULE": "N#Cc1ccc(F)c(CNc2ccc(F)cc2OCCO)c1", "TEST_RESULT": 16.6}
{"MOLECULE": "CC(C)c1nc(C2CCCN(c3ncccn3)C2)no1 (configuration not stated)", "TEST_RESULT": -10.3}

* * *

Listing of recorded cytotoxicity at 70.5 h by entry.
# EXPERIMENT_SUMMARY: Human HepG2 cell viability assay in 384 well format
# Assay type: toxicity, cell-based
# Parameters: dose 125 nL, time 70.5 hour; concentration not given beside the values
# STATED_CONDITIONS: HepG2 cells, read-out: Inhibition

{"MOLECULE": "CCC1(CNC(=O)NC(c2nnc3n2CCC3)C(C)C)CCC1 (stereo not drawn)", "cytotoxicity at 70.5 h": "35.2%"}
{"MOLECULE": "Cc1cc(C)nc(N2CC=C[C@H]2C(=O)NCc2ccc3c(c2)OCO3)n1", "cytotoxicity at 70.5 h": "-3.34%"}
{"MOLECULE": "CN(C)Cc1nnc2n1CCN(c1cnccn1)CC2", "cytotoxicity at 70.5 h": "0.405%"}
{"MOLECULE": "CCc1nnc2n1CCN(C(=O)c1ccc3cc[nH]c3c1)C2", "cytotoxicity at 70.5 h": "-4.35%"}
{"MOLECULE": "Cc1cccc(-n2c(C)cc(=O)[nH]c2=O)c1C", "cytotoxicity at 70.5 h": "-4.81%"}
{"MOLECULE": "COC(=O)COc1cc(NCc2c(C)noc2C)c(Cl)cc1C", "cytotoxicity at 70.5 h": "-5.04%"}
{"MOLECULE": "Cc1cc(NC(=O)Cn2ccc(-c3ccc4c(c3)OCO4)n2)n(C)n1", "cytotoxicity at 70.5 h": "-13.2%"}
{"MOLECULE": "Cc1nccc(-c2cccc(-c3ccn(CC4CCNC4)n3)c2)n1 (stereo not drawn)", "cytotoxicity at 70.5 h": "-3.45%"}
{"MOLECULE": "CN1C(=O)C(C)(C)COc2cc(NS(=O)(=O)c3ccccc3F)ccc21", "cytotoxicity at 70.5 h": "16.6%"}
{"MOLECULE": "CN(C)CC1(O)CCCN(C(=O)Cn2nc3ccccc3n2)CC1 (stereo not drawn)", "cytotoxicity at 70.5 h": "11.1%"}
{"MOLECULE": "Cc1cnc2[nH]c(C(F)(F)F)c(CN3CCSCC3)c2c1", "cytotoxicity at 70.5 h": "-0.92%"}
{"MOLECULE": "N#Cc1ccccc1N1CCCN(C(=O)CCc2ccco2)CC1", "cytotoxicity at 70.5 h": "-5.97%"}
{"MOLECULE": "CC(C)CC(=O)N1CCC2(CC1)COCCN2Cc1ccc(F)cc1", "cytotoxicity at 70.5 h": "-11.1%"}
{"MOLECULE": "Cc1cnn(C2CN(c3ccccc3S(=O)(=O)C(F)(F)F)C2)c1", "cytotoxicity at 70.5 h": "1.3%"}
{"MOLECULE": "Cc1ccc2[nH]c(CN(C)Cc3ccccc3C(=O)O)nc2c1", "cytotoxicity at 70.5 h": "-7.29%"}
{"MOLECULE": "CNC(=O)c1nc(CC(=O)Nc2ccc3cc[nH]c3c2)no1", "cytotoxicity at 70.5 h": "-13.1%"}
{"MOLECULE": "Cc1cccc(C(=O)N2CCn3cnc(COCC4CC4)c3C2)c1", "cytotoxicity at 70.5 h": "-5.71%"}
{"MOLECULE": "CC(C)N1CCN(C)CC1c1nnc2ccc(C(=O)N3CCCC3)cn12 (stereo not drawn)", "cytotoxicity at 70.5 h": "-11.5%"}
{"MOLECULE": "CCOc1ccc(C(F)(F)F)cc1NC(=O)N1CCNC(=O)C1", "cytotoxicity at 70.5 h": "-1.6%"}
{"MOLECULE": "COC(=O)[C@@H]1Cc2ncn(C)c2CN1S(=O)(=O)c1ccc(C)cc1", "cytotoxicity at 70.5 h": "-8.32%"}
{"MOLECULE": "CN(C)C[C@H]1OC[C@@H]2CCN(C(=O)NCc3cccc(F)c3)C[C@@H]21", "cytotoxicity at 70.5 h": "-5.72%"}
{"MOLECULE": "O=C(CCc1nc(Cl)n[nH]1)N1C[C@H](CO)C[C@H](CN2CCCC2)C1", "cytotoxicity at 70.5 h": "-7.42%"}
{"MOLECULE": "CN(CCc1ccccc1)Cc1nc2c(cnn2C)c(=O)[nH]1", "cytotoxicity at 70.5 h": "-10.9%"}

* * *

Listing of recorded cytotoxicity at 70.5 h by entry.
# EXPERIMENT_SUMMARY: Human HepG2 cell viability assay in 384 well format
# Assay type: toxicity, cell-based
# Design: dose 125 nL, time 70.5 hour; concentration not given beside the values
# STATED_CONDITIONS: HepG2 cells, read-out: Inhibition

{"MOLECULE": "Cc1ccc(OCC2CCCN(CC3CCOCC3)C2)cc1 (configuration not stated)", "cytotoxicity at 70.5 h / %": 2.28}
{"MOLECULE": "O=C(c1cnn2ccccc12)N1CCCC(OCc2ccccn2)C1 (configuration not stated)", "cytotoxicity at 70.5 h / %": -6.94}
{"MOLECULE": "O=C1[C@H]2CN(Cc3ccncc3)C[C@H]2CN1c1cncnc1", "cytotoxicity at 70.5 h / %": -0.121}
{"MOLECULE": "O=C([C@@H]1CC[C@@H]2[C@@H](CCN2c2ccncn2)O1)N1CCCCO1", "cytotoxicity at 70.5 h / %": -0.768}
{"MOLECULE": "O=C(NCCc1ccccn1)C1CC(=O)N(CC(F)(F)F)C1 (configuration not stated)", "cytotoxicity at 70.5 h / %": -2.42}
{"MOLECULE": "O=C1CCCN1CCCC(=O)N1CCCC(Cc2cccnc2)C1 (configuration not stated)", "cytotoxicity at 70.5 h / %": -4.43}
{"MOLECULE": "COc1ccc(CCCNCc2c(C)nn(C)c2N(C)C)cc1OC", "cytotoxicity at 70.5 h / %": 4.5}
{"MOLECULE": "Cc1nc(C2CCN(C(=O)c3ccn(C)n3)CC2)c2sccn12", "cytotoxicity at 70.5 h / %": -5.98}
{"MOLECULE": "Cc1c[nH]c(C2CCCN2C(=O)CCc2c(C)n[nH]c2C)n1 (configuration not stated)", "cytotoxicity at 70.5 h / %": -11.3}
{"MOLECULE": "Cn1cc(CN2Cc3c(cnn3C)C(COCC3CC3)C2)cn1 (configuration not stated)", "cytotoxicity at 70.5 h / %": 26}
{"MOLECULE": "O=C(Nc1cnn(CCN2CCOCC2)c1)c1ccccn1", "cytotoxicity at 70.5 h / %": -4.34}
{"MOLECULE": "CC(C)Nc1ncnc2c1CCN(C(=O)c1ccncc1F)CC2", "cytotoxicity at 70.5 h / %": 5.41}
